Experiment Description: chemical genetic growth profiling, strain panel (AID 1159580);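 note: tested at 20 µM; growth read once vehicle control cultures reached saturation at 30 °C; 1 = growth at the plate median or of vehicle wells; lower values mean less growth of the strain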
Condition Notes: S. cerevisiae deletion strains, growth OD, locus YJL166W, strain qcr8, active compounds read low
Out of some 5,500 compounds screened, about 2,000 (36%) were called active. About 18% were inconclusive and are not listed. This is one part of the list.
Could you mark each record class 1 if its normalized growth falls strictly under 1, and class 0 if it equals or exceeds it?

Molecule	Class Label
COC1CC2CCC(C)C(O)(O2)C(=O)C(=O)N2CCCCC2C(=O)OC(C(C)CC2CCC(O)C(OC)C2)CC(=O)C(C)/C=C(\C)C(O)C(OC)C(=O)C(C)CC(C)/C=C/C=C/C=C/1C (centres undefined)	class 1
CC1(C)CC2C1CC[C@]1(C)CCC3C(C(=O)O)CC(=O)O[C@@]32C1 (some centres undefined)	class 0
CC1=CC(=O)c2ccccc2C1=O	class 1
CC(=O)Oc1cccc(O)c1	class 0
CC1=CCCC2C1(C)CCC(C)C2(C)CC/C(C)=C/C[n+]1cn(C)c2c(N)ncnc21 (centres undefined)	class 1

----------
Experiment Description: chemical genetic growth profiling, strain panel (AID 1159580)
Condition Notes: S. cerevisiae deletion strains, growth OD, locus YFL029C, strain CAK1, active compounds read low
In all, about 5,500 compounds went through this assay and about 2,000 (36%) were called active. Inconclusive results (about 18%) are left out. The list shows a part of the results.
Assay Readout: normalized growth

In [3]: df
Out[3]:
                                    compound      assay_readout  meas_value
 0  COC(=O)c1sccc1NS(=O)(=O)c1cc(Cl)cc(Cl)c1  normalized growth       0.951
 1  C#CCSC1=NNC(c2ccccn2)S1 (stereo unspecified)  normalized growth       0.517
 2  Cc1onc(-c2c(Cl)cccc2Cl)c1C(=O)O/N=C(/N)Cc1ccc(C(C)(C)C)cc1  normalized growth       0.986
 3  Cc1c(C)c(C)c(C(=O)c2ccc(N=Cc3cc(Cl)cc(Cl)c3O)cc2)c(C)c1C  normalized growth       0.932
 4           Brc1ccc(-c2csc(-c3ccncc3)n2)cc1  normalized growth       0.911
 5            Cc1ccc(-c2csc(-c3ccncc3)n2)cc1  normalized growth        0.89
 6         Cc1ccc2nc(-c3ccc4c(c3)OCCO4)cn2c1  normalized growth       0.974
 7  CC(C)(C)c1cc(C(=O)NNc2cccc(Cl)c2)n(Cc2ccccc2)n1  normalized growth       0.939
 8    O=S(=O)(Oc1ccc(-c2csnn2)cc1)c1ccccc1Cl  normalized growth       0.963
 9  COc1c(Br)csc1C(=O)O/N=C(/N)c1cc(C(F)(F)F)cc(C(F)(F)F)c1  normalized growth        0.96
10  Cc1cc(/C(N)=N\OC(=O)C(C)(C)C)cc(/C(N)=N\OC(=O)C(C)(C)C)c1  normalized growth       0.986

----------
Experiment Description: chemical genetic growth profiling, strain panel (AID 1159580);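 note: tested at 20 µM; growth read once vehicle control cultures reached saturation at 30 °C; 1 = growth at the plate median or of vehicle wells; lower values mean less growth of the strain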
Condition Notes: S. cerevisiae deletion strains, growth OD, locus YBR279W, strain paf1, active compounds read low
Hit rate of the full screen: of about 5,500 compounds, about 2,000 (36%) were called active. Inconclusive results (about 18%) are left out. Some of the results follow.
Could you mark each record Condition met if its normalized growth falls strictly under 1, and Condition not met if it equals or exceeds it?

Compound	Class Label
CC(=O)Nc1ccc(S(=O)(=O)Nc2onc(C)c2C)cc1	Condition met
NC(Cn1ccc(=O)c(O)c1)C(=O)O (configuration not stated)	Condition not met
Cc1scc2c1N(C(=O)CN1CCN(C)CC1)c1ccccc1NC2=O	Condition met
COc1cc(C/C=C/c2ccccc2)c(OC)cc1O	Condition met
C=C1c2c(Cl)ccc(O)c2C(O)=C2C(=O)[C@]3(O)C(O)=C(C(N)=O)C(=O)[C@@H](N(C)C)[C@@H]3[C@@H](O)[C@H]12	Condition met
NCC(N)C(=O)c1ccccc1 (configuration not stated)	Condition not met
CC1=CCCC2C1(C)CCC(C)C2(C)CC/C(C)=C/C[n+]1cn(C)c2c(N)ncnc21 (configuration not stated)	Condition met

----------
Experiment Description: chemical genetic growth profiling, strain panel (AID 1159580);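 note: tested at 20 µM; growth read once vehicle control cultures reached saturation at 30 °C; 1 = growth at the plate median or of vehicle wells; lower values mean less growth of the strain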
Condition Notes: S. cerevisiae deletion strains, growth OD, locus YJL154C, strain vps35, active compounds read low
Screen size: about 5,500 compounds; about 2,000 (36%) were called active. Inconclusive results (about 18%) are left out. The list shows a part of the results.
Quick list: normalized growth per entry.

Molecule	normalized growth
CO[C@H]1CC(O[C@@H]2/C(C)=C/C[C@@H]3C[C@@H](C[C@]4(CC[C@H](C)[C@@H](C5CCCCC5)O4)O3)OC(=O)[C@@H]3C=C(C)/C(=N\O)[C@H]4OC/C(=C\C=C\[C@@H]2C)[C@]43O)O[C@@H](C)C1O (stereo not given in full)	1.02
CCOC(=O)NNc1nncc2ccccc12	1.01
CC(CCC(=O)O)[C@H]1CCC2C3C(=O)C[C@@H]4CC(=O)CC[C@]4(C)C3CC(=O)[C@@]21C (stereo not given in full)	0.993
CC(C)c1ccc2c(c1)CCC1[C@](C)(CN)CCC[C@]21C (stereo not given in full)	1.02
C/C=C\C1=C(C(=O)O)N2C(=O)C(NC(=O)C(N)c3ccc(O)cc3)C2SC1 (stereo not given)	1.01
C[n+]1ccccc1/C=N/O	1.02
CC(Cc1cccc(C(F)(F)F)c1)NCCOC(=O)c1ccccc1 (stereo not given)	0.986
C[C@H](CCC(=O)O)[C@H]1CCC2C3C(=O)CC4CC(=O)CC[C@]4(C)C3CC(=O)[C@@]21C (stereo not given in full)	0.958
O=C(O)C1=CCCNC1	0.98
CC(=O)O[C@H]1CC[C@@]2(C)C(=CC(=O)C3C4CCC(C(C)CCCC(C)C)[C@@]4(C)CCC32)C1 (stereo not given in full)	0.999
CCC(C)[C@H]1O[C@]2(C=C[C@@H]1C)C[C@@H]1C[C@@H](C/C=C(\C)[C@@H](OC3C[C@H](OC)C(O[C@H]4C[C@H](OC)[C@@H](O)[C@H](C)O4)[C@H](C)O3)[C@@H](C)/C=C/C=C3\CO[C@@H]4[C@H](O)C(C)=C[C@@H](C(=O)O1)[C@]34O)O2 (stereo not given in full)	1
CC(C)(C)NCC(O)c1ccc(O)c(CO)c1 (stereo not given)	1.02
CC(C)CCCC(C)[C@H]1CCC2C3C(=O)C=C4C[C@@H](O)CC[C@]4(C)C3CC[C@@]21C (stereo not given in full)	1.01
Oc1c(Cl)cc(Cl)cc1Sc1cc(Cl)cc(Cl)c1O	0.0607
Cc1cc(=O)[nH]c(=S)[nH]1	0.972
Cc1cc(=O)oc2cc(O)cc(O)c12	0.971
CCCSc1ccc2nc(NC(=O)OC)[nH]c2c1	1
CN(C)C(=O)Oc1cccc([N+](C)(C)C)c1	1.01
CCCOc1ccc2nc(NC(=O)OC)[nH]c2c1	1.02
Cc1cc(=O)oc2cc(O)c(O)cc12	1.01

----------
Experiment Description: chemical genetic growth profiling, strain panel (AID 1159580);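 note: tested at 20 µM; growth read once vehicle control cultures reached saturation at 30 °C; 1 = growth at the plate median or of vehicle wells; lower values mean less growth of the strain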
Condition Notes: S. cerevisiae deletion strains, growth OD, locus YIR030C, strain dcg1
Screen size: about 5,500 compounds; about 2,000 (36%) were called active. Another 18% or so got no clear call; they are omitted. No stated cut-off is given here; in the data, active means normalized growth mostly below about 0.91 (no sharp cut-off); inconclusive means no clear call, values can overlap the other calls; inactive means mostly above about 0.92. The list shows a part of the results.
Outcome codes: 1 (yes) for active, 0 (no) for inactive

Compound	Class Label
CC(=O)OC1CCC2(C)C(CC(OC(C)=O)C3(C)C4=CC(=O)OC(c5ccoc5)C4(C)CCC23)C1(C)C (stereo unspecified)	0 (no)
CC12CCC(=O)C=C1CCC1C2[C@@H](O)CC2(C)C1CC[C@]2(O)C(=O)COP(=O)(O)O (stereo partly specified)	0 (no)
CC(=O)O[C@H]1CCC2(C)C3=C(CCC2C1(C)C)[C@@]1(C)CC[C@@H](C(C)CCC=C(C)C)[C@]1(C)CC3 (stereo partly specified)	1 (yes)
CC(C)=CCCC(C)C1CC[C@@]2(C)C3=C(CC[C@]12C)C1(C)CC[C@H](O)C(C)(C)C1CC3 (stereo partly specified)	0 (no)
CC(=O)O[C@@H]1CC2C(C)(C)[C@H](O)C=C[C@]2(C)C2CC[C@]3(C)C(=CC(=O)O[C@H]3c3ccoc3)[C@@]21C (stereo partly specified)	0 (no)
CC(=O)O[C@H]1CC[C@@]2(C)C(C[C@@H](OC(C)=O)[C@@]3(C)C4=CC(=O)O[C@@H](c5ccoc5)[C@]4(C)CCC23)C1(C)C (stereo partly specified)	0 (no)
CC(=O)O[C@@H]1CC2C(C)(C)C(=O)C=C[C@]2(C)C2CC[C@]3(C)C(=CC(=O)O[C@H]3c3ccoc3)[C@@]21C (stereo partly specified)	0 (no)
CC(C)=CCCC(C)[C@@H]1CC[C@]2(C)C3=C(CC[C@@]12C)C1(C)CC[C@H](O)C(C)(C)C1CC3 (stereo partly specified)	0 (no)
CC(C)CCCC(C)C1CC[C@@]2(C)C3=C(CC[C@]12C)[C@@]1(C)CC[C@H](O)C(C)(C)C1CC3 (stereo partly specified)	0 (no)
CO[C@H]1CC(O[C@@H]2/C(C)=C/C[C@@H]3C[C@@H](C[C@]4(CC[C@H](C)[C@@H](C5CCCCC5)O4)O3)OC(=O)[C@@H]3C=C(C)/C(=N\O)[C@H]4OC/C(=C\C=C\[C@@H]2C)[C@]43O)O[C@@H](C)C1O (stereo partly specified)	0 (no)
CC(=O)O[C@@H]1CC[C@@]2(C)C(C[C@@H](OC(C)=O)[C@@]3(C)C4=CC(=O)O[C@@H](c5ccoc5)[C@]4(C)CCC23)C1(C)C (stereo partly specified)	0 (no)
